Could you please report measured pKi for the items listed next?
# measured_on: C5a receptor (Homo sapiens, UniProt P21730)
# Sequence (P21730 whole entry, the tested form may be a part): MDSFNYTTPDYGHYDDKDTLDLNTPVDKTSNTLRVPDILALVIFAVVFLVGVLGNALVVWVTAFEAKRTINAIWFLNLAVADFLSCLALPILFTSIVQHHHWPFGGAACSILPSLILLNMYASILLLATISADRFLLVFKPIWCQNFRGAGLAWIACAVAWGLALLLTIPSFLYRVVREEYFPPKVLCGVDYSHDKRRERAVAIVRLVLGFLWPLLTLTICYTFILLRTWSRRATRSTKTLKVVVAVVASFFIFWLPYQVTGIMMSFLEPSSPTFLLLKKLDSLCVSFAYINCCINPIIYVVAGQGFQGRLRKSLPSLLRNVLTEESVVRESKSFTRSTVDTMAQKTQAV
# test_method_notes: Anaphylatoxin (C5a) receptor binding Ki determination, 125I-C5a on PMNL membrane fragments
# experimental_parameters: read-out: Ki (In vitro C5a Receptor Binding Potency)
# Description: The membrane-bound radiolabeled C5a was separated from the free radiolabeled C5a by filtration, and the recovered gamma radioactivity was measured. […] Free and membrane-bound ligand were separated by filtration.
In textbook form, pKi equals minus log to base ten of the concentration in mol/L.

Prompt: Let me know recorded pKi for CN[C@@H](Cc1ccccc1)C(=O)N[C@@H](CCCCN)C(=O)N1CCC[C@H]1C(=O)N[C@@H](CC1CCCCC1)C(=O)N[C@@H](C)C(=O)N[C@@H](CC(C)C)C(=O)NC(CCCc1ccccc1)C(=O)N[C@@H](CCCNC(=N)N)C(=O)O (single isomer, unassigned) [Example 129] , thanks.
Response: 7.77

Prompt: Let me know recorded pKi for CC(C)C[C@H](NC(=O)CNC(=O)[C@H](CC1CCCCC1)NC(=O)CN(C)C(=O)CCCN)C(=O)NC(CCCc1ccccc1)C(=O)N[C@@H](CCCNC(=N)N)C(=O)O (mixture of isomers) [Example 113] , thanks.
Response: 6.06

Prompt: Let me know recorded pKi for CC(C)C[C@H](NC(=O)CNC(=O)[C@H](CC1CCCCC1)NC(=O)[C@H](N)CCCCN)C(=O)NC(CCCc1ccccc1)C(=O)N[C@@H](CCCNC(=N)N)C(=O)O (single isomer, unassigned) [Example 57] , thanks.
Response: 5.71

Prompt: Let me know recorded pKi for C[C@H](NC(=O)CNC(=O)[C@@H](N)CC1CCCCC1)C(=O)NC(CCCc1ccccc1)C(=O)N[C@@H](CCCNC(=N)N)C(=O)O (mixture of isomers) , thanks.
Response: 4.17

Prompt: Let me know recorded pKi for CC(C)C[C@H](NC(=O)CNC(=O)[C@H](CC1CCCCC1)N(C)C(=O)CCCCCCN)C(=O)NC(CCCc1ccccc1)C(=O)N[C@@H](CCCNC(=N)N)C(=O)O (single isomer, unassigned) [Example 75] , thanks.
Response: 4.76

Prompt: Let me know recorded pKi for CC(C)C[C@H](NC(=O)[C@H](CCCCN)NC(=O)[C@@H](N)CC1CCCCC1)C(=O)NC(CCCc1ccccc1)C(=O)N[C@@H](CCCNC(=N)N)C(=O)O (single isomer, unassigned) [Example 97] , thanks.
Response: 5.09

Prompt: Let me know recorded pKi for CSCC[C@H](NC(=O)[C@H](CC(=O)O)NC(=O)[C@@H](N)CCCCN)C(=O)N[C@@H](CCC(N)=O)C(=O)N[C@@H](CC(C)C)C(=O)NC(CCCc1ccccc1)C(=O)N[C@@H](CCCNC(=N)N)C(=O)O (single isomer, unassigned) [Example 39] , thanks.
Response: 4.15

Prompt: Let me know recorded pKi for CC(=O)N[C@@H](CC1CCCCC1)C(=O)NCC(=O)N[C@@H](CC(C)C)C(=O)NC(CCCc1ccccc1)C(=O)N[C@@H](CCCNC(=N)N)C(=O)O (single isomer, unassigned) [Example 46] , thanks.
Response: 4.66

Prompt: Let me know recorded pKi for CC(C)C[C@H](NC(=O)CN(C)C(=O)[C@H](CC1CCCCC1)NC(=O)CCCCCCN)C(=O)NC(CCCc1ccccc1)C(=O)N[C@@H](CCCNC(=N)N)C(=O)O (single isomer, unassigned) [Example 61] , thanks.
Response: 5.49

Prompt: Let me know recorded pKi for CC(C)C[C@H](NC(=O)[C@@H]1CCCN1C(=O)[C@H](CC1CCCCC1)NC(=O)CNC(=O)CCCCCN)C(=O)NC(CCCc1ccccc1)C(=O)N[C@@H](CCCNC(=N)N)C(=O)O (single isomer, unassigned) [Example 111] , thanks.
Response: 6.00
